Provenance of the data: paper PMC8791557

# Assay type: in vivo, human
# MEASUREMENT SETUP: both, human, in vivo, Tmax
RECORDED METRIC: Tmax

# input Given c1ccc2c(c1)cc1ccc3cccc4ccc2c1c34 [[^14C]-BaP, Benzo[a]pyrene] , state its recorded Tmax.
# output 30 to 60 min

----------
# Format: in vivo, human
# MEASUREMENT SETUP: human, in vivo, po, β half-life
RECORDED METRIC: half-life (days)
Write it as a number; the unit days goes unstated.

# input What value of half-life has been reported for the following molecule? c1ccc2c(c1)cc1ccc3cccc4ccc2c1c34 [[^14C]-BaP, Benzo[a]pyrene]
# output 54.5

----------
# Assay type: in vivo, human
# MEASUREMENT SETUP: human, in vivo, po, α half-life
RECORDED METRIC: half-life
Number first, unit second: that is the form wanted.

# input // half-life lookup, key: c1ccc2c(c1)cc1ccc3cccc4ccc2c1c34 [[^14C]-BaP, Benzo[a]pyrene]
# output 114 min

----------
# Type: in vivo, human
# MEASUREMENT SETUP: both, human, in vivo, po, α half-life
RECORDED METRIC: half-life (min)
Reply with just the number (in min).

# input Would you mind telling me what half-life value was observed for c1ccc2c(c1)cc1ccc3cccc4ccc2c1c34 [[^14C]-BaP, Benzo[a]pyrene] ?
# output 29

----------
# Type: in vivo, human
# MEASUREMENT SETUP: human, in vivo, po, Half-life
RECORDED METRIC: half-life (h)
Provide only the numeric value, understood in h.

# input Which half-life is reported for this molecule? c1ccc2c(c1)cc1ccc3cccc4ccc2c1c34 [[^14C]-BaP, Benzo[a]pyrene]
# output 4.31

----------
# Assay type: in vivo, human
# MEASUREMENT SETUP: both, human, in vivo, po, Tmax (Range)
RECORDED METRIC: Tmax

# input Reported Tmax for c1ccc2c(c1)cc1ccc3cccc4ccc2c1c34 [[^14C]-BaP, Benzo[a]pyrene] : what is it?
# output 0.5 to 4 h
